Reference for the values: patent US12258338B2

Target: human ERG potassium channel (hERG) (Homo sapiens, UniProt Q12809)
Construct: expressed in transfected cells; host or cells: HEK293, stably transfected, tetracycline-inducible promoter
Sequence (Q12809 whole entry): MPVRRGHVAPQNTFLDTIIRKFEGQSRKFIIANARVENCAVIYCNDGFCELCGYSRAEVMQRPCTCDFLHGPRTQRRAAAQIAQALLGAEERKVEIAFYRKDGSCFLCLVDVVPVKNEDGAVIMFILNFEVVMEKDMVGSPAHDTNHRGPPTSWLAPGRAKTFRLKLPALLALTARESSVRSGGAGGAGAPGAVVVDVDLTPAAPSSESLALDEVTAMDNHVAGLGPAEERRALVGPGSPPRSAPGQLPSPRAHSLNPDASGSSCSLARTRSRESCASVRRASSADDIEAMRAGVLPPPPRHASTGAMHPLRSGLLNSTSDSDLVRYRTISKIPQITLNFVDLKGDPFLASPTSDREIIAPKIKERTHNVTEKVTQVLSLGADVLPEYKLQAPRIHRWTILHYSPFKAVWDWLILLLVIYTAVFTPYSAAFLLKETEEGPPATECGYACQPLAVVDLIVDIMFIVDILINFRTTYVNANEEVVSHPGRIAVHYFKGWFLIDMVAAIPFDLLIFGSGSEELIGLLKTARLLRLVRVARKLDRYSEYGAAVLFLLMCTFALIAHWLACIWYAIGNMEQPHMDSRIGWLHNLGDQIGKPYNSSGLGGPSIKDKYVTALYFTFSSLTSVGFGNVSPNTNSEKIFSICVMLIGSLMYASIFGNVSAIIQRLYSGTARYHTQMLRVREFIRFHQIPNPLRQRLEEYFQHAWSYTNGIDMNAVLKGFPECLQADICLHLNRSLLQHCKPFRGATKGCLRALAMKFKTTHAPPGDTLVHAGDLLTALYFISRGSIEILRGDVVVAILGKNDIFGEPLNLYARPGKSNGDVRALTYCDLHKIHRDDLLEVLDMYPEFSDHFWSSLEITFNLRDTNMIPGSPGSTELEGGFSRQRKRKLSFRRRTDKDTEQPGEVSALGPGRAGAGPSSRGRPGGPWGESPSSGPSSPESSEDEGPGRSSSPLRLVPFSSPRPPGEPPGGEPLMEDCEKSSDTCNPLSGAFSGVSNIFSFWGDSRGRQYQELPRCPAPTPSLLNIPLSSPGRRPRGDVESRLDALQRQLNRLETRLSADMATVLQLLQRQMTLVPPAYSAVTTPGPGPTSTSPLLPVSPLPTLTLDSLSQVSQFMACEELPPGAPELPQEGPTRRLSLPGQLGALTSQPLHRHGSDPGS
Assay: hERG channel tail current recording using in vitro Rapid ICE (automated patch-clamp, QPatch HTX)
Format: cell-based
Conditions: Table 26
pIC50: −log10 of the molar value.
Catalogue of pIC50 values

molecule=CCN1C[C@H](NC(=O)COc2ccc(Cl)c(F)c2)CC[C@H]1c1nnc(-c2ccc(Cl)cc2)o1 experimental_system="human ERG potassium channel (hERG) (Homo sapiens, UniProt Q12809)" value="6.00 to 9.00"

Request: # value lookup — system human ERG potassium channel (hERG) (Homo sapiens, UniProt Q12809), readout pIC50, item O=C(COc1ccc(Cl)c(F)c1)N[C@H]1CC[C@H](c2nnc(OCCO[C@H]3CC3(F)F)o2)NC1 (single isomer, unassigned)
Response: < 5.30

Request: Tell me reported pIC50 for "O=C(COc1ccc(Cl)c(Cl)c1)N[C@H]1CC[C@H](c2nnc(OCCOC3CC3)o2)NC1" , tested with human ERG potassium channel (hERG) (Homo sapiens, UniProt Q12809).
Response: 5.30 to 6.00

Request: Checklist item: pIC50 tested on human ERG potassium channel (hERG) (Homo sapiens, UniProt Q12809), entry "O=C(COc1ccc(Cl)c(C(F)F)c1)N[C@H]1CC[C@H](c2nnc(OCCOC(F)(F)F)o2)NC1" , value?
Response: < 5.30

Request: Provide the documented pIC50 with human ERG potassium channel (hERG) (Homo sapiens, UniProt Q12809) as the system for "CCCCOc1nnc([C@H]2CC[C@H](NC(=O)COc3ccc(Cl)c(F)c3)CN2)o1"
Response: 5.30 to 6.00

Request: What measured pIC50 is associated with "O=C(COc1ccc(Cl)c(F)c1)N[C@H]1CC[C@H](c2nnc(OC3CC(F)(F)C3)o2)NC1" on human ERG potassium channel (hERG) (Homo sapiens, UniProt Q12809)?
Response: 5.30 to 6.00

Request: Tell me reported pIC50 for "O=C(COc1ccc(C(F)(F)F)c(Cl)c1)N[C@H]1CC[C@H](c2nnc([C@H]3C[C@@H](OC(F)(F)F)C3)o2)NC1" , tested with human ERG potassium channel (hERG) (Homo sapiens, UniProt Q12809).
Response: 5.30 to 6.00

* * *

Experiment: Thermodynamic (Equilibrium) solubility in selected buffer
Assay type: physicochemical
Settings: phosphate buffer 50 mM, aqueous buffer, thermodynamic from solid; pH 7.4; Table 25; read-out: Solubility (μg/mL) pH 7.4
Parameter solubility: see the listing below.
Give the value, in units of µg/mL, as a plain number.

compound="O=C(COc1ccc(Cl)c(C(F)F)c1)N[C@H]1CC[C@H](c2nnc(OCCOC(F)(F)F)o2)NC1 [Example 11]" endpoint_name=solubility units_of_measure=µg/mL value=42
compound="O=C(COc1ccc(Cl)c(F)c1)N[C@H]1CC[C@H](c2noc([C@H]3C[C@@H](OC(F)(F)F)C3)n2)NC1 [Example 98]" endpoint_name=solubility units_of_measure=µg/mL value=17

Request: # lookup: solubility of Cc1ccc(OCC(=O)N[C@H]2CC[C@H](c3nnc(OCCOC(F)(F)F)o3)NC2)cc1C [Example 13]
Response: 240

* * *

Assay: Thermodynamic (Equilibrium) solubility in selected buffer
Type: physicochemical
Conditions: phosphate buffer 50 mM, aqueous buffer, thermodynamic from solid; pH 2; Table 24; read-out: Solubility (μg/mL) pH 2
ENDPOINT_NAME: solubility (µg/mL)
Quick note: give the figure in µg/mL, leave out the unit.

Request: Record request: solubility value, item O=C(COc1ccc(Cl)c(F)c1)N[C@@H]1CC[C@@H](c2nnc(COC(F)(F)F)o2)OC1 [WO201904 6779 Ex 30, reference compound]
Response: 3

Request: Quick one: solubility of "O=C(COc1ccc(Cl)c(F)c1)N[C@H]1CC[C@H](c2nnc(COC(F)(F)F)o2)NC1" ?
Response: 907
